Test system: Staphylococcus aureus
Experiment: microbe, parasite or virus in culture
Format: functional
Settings: read-out: IZ
recorded endpoint: zone of inhibition at 300 µg/mL (mm)
Express it in mm; write the number only.

The examples below pair each entry with its known result.
{"chemical structure": "COc1ccc(-[n+]2noc([O-])c2Cn2cnc3ccccc32)cc1", "unit symbol": "mm", "zone of inhibition at 300 µg/mL": 11}
{"chemical structure": "COc1ccc(-[n+]2noc([O-])c2CNc2nc3ccc(Br)cc3s2)cc1", "unit symbol": "mm", "zone of inhibition at 300 µg/mL": 18}
{"chemical structure": "CCOc1ccc(NCc2c([O-])on[n+]2-c2ccc(OC)cc2)cc1", "unit symbol": "mm", "zone of inhibition at 300 µg/mL": 17}
{"chemical structure": "CC1(C)S[C@@H]2[C@H](NC(=O)[C@H](N)c3ccccc3)C(=O)N2[C@H]1C(=O)O", "unit symbol": "mm", "zone of inhibition at 300 µg/mL": 30}
{"chemical structure": "COc1ccc(-[n+]2noc([O-])c2CNc2nc3ccc(Cl)cc3s2)cc1", "unit symbol": "mm", "zone of inhibition at 300 µg/mL": 14}

Next molecule, zone of inhibition at 300 µg/mL to be filled in.
Problem: Given "COc1ccc(-[n+]2noc([O-])c2CNc2ccc(F)cc2)cc1" , respond with its zone of inhibition at 300 µg/mL.
Result: 14

====

Tested on: Pseudomonas aeruginosa
Assay: microbe, parasite or virus in culture
Format: functional
// reported MIC for each item listed
Just so you know, I need the unit written after the number.

The examples below pair each entry with its known result.
{"molecule": "CCOc1ccc2nc(NCc3c([O-])on[n+]3-c3ccc(OC)cc3)sc2c1", "recorded endpoint": "MIC", "observed result": "200 µg/mL"}
{"molecule": "COc1ccc(-[n+]2noc([O-])c2CNc2ccc([N+](=O)[O-])cc2)cc1", "recorded endpoint": "MIC", "observed result": "200 µg/mL"}
{"molecule": "COc1ccc(-[n+]2noc([O-])c2CNc2cc(Cl)ccc2Cl)cc1", "recorded endpoint": "MIC", "observed result": "500 µg/mL"}
{"molecule": "COc1ccc(-[n+]2noc([O-])c2Cn2c(-c3cccc(Br)c3)nc3ccccc32)cc1", "recorded endpoint": "MIC", "observed result": "500 µg/mL"}

Problem: Given CC1(C)S[C@@H]2[C@H](NC(=O)[C@H](N)c3ccccc3)C(=O)N2[C@H]1C(=O)O [AMPICILLIN] , respond with its MIC.
Result: 100 µg/mL

Problem: Given "COc1ccc(-[n+]2noc([O-])c2Cn2c(-c3ccc(Cl)cc3)nc3ccccc32)cc1" , respond with its MIC.
Result: 500 µg/mL

Problem: Given "COc1ccc(-[n+]2noc([O-])c2CNc2nc3ccc(F)cc3s2)cc1" , respond with its MIC.
Result: 500 µg/mL

Problem: Given "COc1ccc(-[n+]2noc([O-])c2CNc2nc3ccc(C)cc3s2)cc1" , respond with its MIC.
Result: 500 µg/mL

Problem: Given "COc1ccc(-[n+]2noc([O-])c2CNc2nc3ccc([N+](=O)[O-])cc3s2)cc1" , respond with its MIC.
Result: 200 µg/mL

====

Test system: Pseudomonas aeruginosa
Experiment: microbe, parasite or virus in culture
Assay type: functional
recorded endpoint: MIC (µg/mL)
Express it in µg/mL; write the number only.

Problem: Given "COc1ccc(-[n+]2noc([O-])c2Cn2c(-c3ccc(OC)c([N+](=O)[O-])c3)nc3ccccc32)cc1" , respond with its MIC.
Result: 200

Problem: Given "COc1ccc(-[n+]2noc([O-])c2CNc2nc3ccc(OC)cc3s2)cc1" , respond with its MIC.
Result: 200

Problem: Given "COc1ccc(-[n+]2noc([O-])c2CNc2nc3c([N+](=O)[O-])cccc3s2)cc1" , respond with its MIC.
Result: 100

====

Test system: Staphylococcus aureus
Assay: microbe, parasite or virus in culture
Type: functional
Conditions: read-out: IZ
Param threshold (20 mm) applies to zone of inhibition at 300 µg/mL; output class 1 when value >= threshold, class 0 when value < threshold.

Examples from the recorded data:
{"compound": "COc1ccc(-c2nc3ccccc3n2Cc2c([O-])on[n+]2-c2ccc(OC)cc2)cc1", "cat": "class 0"}
{"compound": "COc1ccc(-[n+]2noc([O-])c2CNc2nc3ccc(OC)cc3s2)cc1", "cat": "class 0"}
{"compound": "COc1ccc(-[n+]2noc([O-])c2Cn2c(-c3ccc(Cl)c(Cl)c3)nc3ccccc32)cc1", "cat": "class 0"}
{"compound": "O=C(O)c1cn(C2CC2)c2cc(N3CCNCC3)c(F)cc2c1=O [CIPROFLOXACIN]", "cat": "class 1"}
{"compound": "COc1ccc(-[n+]2noc([O-])c2CNc2nc3c([N+](=O)[O-])cccc3s2)cc1", "cat": "class 1"}
{"compound": "COc1ccc(-[n+]2noc([O-])c2Cn2c(-c3ccc([N+](=O)[O-])cc3)nc3ccccc32)cc1", "cat": "class 0"}
{"compound": "COc1ccc(-[n+]2noc([O-])c2CNc2ccc([N+](=O)[O-])cc2)cc1", "cat": "class 0"}
{"compound": "CN[C@@H]1[C@H](O[C@H]2[C@H](O[C@H]3[C@H](O)[C@@H](O)[C@H](N=C(N)N)[C@@H](O)[C@@H]3N=C(N)N)O[C@@H](C)[C@]2(O)C=O)O[C@@H](CO)[C@H](O)[C@H]1O [STREPTOMYCIN]", "cat": "class 1"}

With those in mind, consider the next compound.
Problem: Does the compound "COc1ccc(-[n+]2noc([O-])c2CNc2nc3ccc(C)cc3s2)cc1" have recorded zone of inhibition at 300 µg/mL that is 20 mm or more?
Result: class 0

====

// reported log10 of MIC for each item listed
System: Escherichia coli
Assay: microbe, parasite or virus in culture
Type: functional
Field: value | Transform: log10 | Quantity: MIC | Unit: µg/mL

The examples below pair each entry with its known result.
{"chemical structure": "COc1ccc(-[n+]2noc([O-])c2CNc2nc3ccc(C#N)cc3s2)cc1", "subject of test": "Escherichia coli", "log10 of MIC": 2.48}
{"chemical structure": "COc1ccc(-[n+]2noc([O-])c2CNc2ccc(F)cc2)cc1", "subject of test": "Escherichia coli", "log10 of MIC": 2.00}
{"chemical structure": "CC1(C)S[C@@H]2[C@H](NC(=O)Cc3ccccc3)C(=O)N2[C@H]1C(=O)O", "subject of test": "Escherichia coli", "log10 of MIC": -0.30}

Problem: Enter log10 of MIC (test system Escherichia coli) for "O=C(O)c1cn(C2CC2)c2cc(N3CCNCC3)c(F)cc2c1=O"
Result: 1.40

====

Tested on: Candida albicans
Experiment: microbe, parasite or virus in culture
Type: functional
// reported MIC for each item listed
Just so you know, I need the unit written after the number.

The examples below pair each entry with its known result.
{"compound": "COc1ccc(-[n+]2noc([O-])c2CNc2ccc(C)cc2)cc1", "MIC": "200 µg/mL"}
{"compound": "COc1ccc(-[n+]2noc([O-])c2CNc2ccccc2Cl)cc1", "MIC": "300 µg/mL"}
{"compound": "CCOc1ccc(NCc2c([O-])on[n+]2-c2ccc(OC)cc2)cc1", "MIC": "200 µg/mL"}

Problem: Given "COc1ccc(-[n+]2noc([O-])c2CNc2ccc([N+](=O)[O-])cc2)cc1" , respond with its MIC.
Result: 200 µg/mL

Problem: Given "COc1ccc(-[n+]2noc([O-])c2CNc2nc3ccc(OC)cc3s2)cc1" , respond with its MIC.
Result: 100 µg/mL

Problem: Given "COc1ccc(-[n+]2noc([O-])c2CNc2nc3ccc(Br)cc3s2)cc1" , respond with its MIC.
Result: 80 µg/mL

Problem: Given "CCOc1ccc2nc(NCc3c([O-])on[n+]3-c3ccc(OC)cc3)sc2c1" , respond with its MIC.
Result: 200 µg/mL

Problem: Given "COc1ccc(-[n+]2noc([O-])c2Cn2cnc3ccccc32)cc1" , respond with its MIC.
Result: 300 µg/mL

Problem: Given "COc1ccc(-[n+]2noc([O-])c2CNc2nc3cc([N+](=O)[O-])ccc3s2)cc1" , respond with its MIC.
Result: 200 µg/mL

Problem: Given OC(Cn1cncn1)(Cn1cncn1)c1ccc(F)cc1F [FLUCONAZOLE] , respond with its MIC.
Result: 100 µg/mL

Problem: Given "COc1ccc(-[n+]2noc([O-])c2Cn2c(-c3ccc([N+](=O)[O-])cc3)nc3ccccc32)cc1" , respond with its MIC.
Result: 200 µg/mL

====

System: Candida albicans
Assay: microbe, parasite or virus in culture
Assay type: functional
recorded endpoint: MIC
Just so you know, I need the unit written after the number.

Problem: Given "COc1ccc(-[n+]2noc([O-])c2Cn2c(-c3ccccc3Br)nc3ccccc32)cc1" , respond with its MIC.
Result: 200 µg/mL
